- ASSAY REMARKS: Measurement of absorbance and fluorescence of synthesized compound in ethanol
- Format: physicochemical
- TEST PARAMETERS: 10 μM in ethanol, average of three measurements
Threshold-based label: λex: Maximum excitation wavelength under 400 nm gives yes, λex: Maximum excitation wavelength not under 400 nm gives no.

See these solved cases before continuing.
INSERT INTO results (compound, class_name) VALUES
  ('CNc1ccc(/C=C/C=C/C(=O)c2ccc3cc(OC)ccc3n2)cc1 [Compound 16b]', 'no'),
  ('Fc1ccc(-c2ccc3c(c2)[nH]c2ccncc23)cn1 [Compound T807, reference compound]', 'yes'),
  ('COc1ccc2nc(/C=C/c3ccncc3)ccc2c1 [Compound 14b]', 'yes');

Incoming: # strict comparison: is reported λex: Maximum excitation wavelength < 400 nm? input = COc1ccc2nc(C(=O)/C=C/C=C/c3ccc(N(C)C)nc3)ccc2c1 [Compound 16d]
Outgoing: no

Incoming: # strict comparison: is reported λex: Maximum excitation wavelength < 400 nm? input = Nc1ccc(C(=O)/C=C/c2ccc3cc(O)ccc3n2)cc1 [Compound 13c]
Outgoing: yes

Incoming: # strict comparison: is reported λex: Maximum excitation wavelength < 400 nm? input = COc1ccc2nc(C(=O)/C=C/C=C/c3ccc(N(C)CCO)cc3)ccc2c1 [Compound 16e]
Outgoing: no

Incoming: # strict comparison: is reported λex: Maximum excitation wavelength < 400 nm? input = COc1ccc2nc(/C=C/c3ccc(C(F)(F)F)cc3)ccc2c1 [Compound 14a]
Outgoing: yes

Incoming: # strict comparison: is reported λex: Maximum excitation wavelength < 400 nm? input = COc1ccc2nc(C(=O)/C=C/C=C/c3ccc(N(C)C)cc3)ccc2c1 [Compound 16c]
Outgoing: no

Incoming: # strict comparison: is reported λex: Maximum excitation wavelength < 400 nm? input = COc1ccc2nc(/C=C/C=C/c3cccc(Cl)c3)ccc2c1 [Compound 15f]
Outgoing: yes

Incoming: # strict comparison: is reported λex: Maximum excitation wavelength < 400 nm? input = COc1ccc2nc(/C=C/C=C/c3ccc(F)cc3F)ccc2c1 [Compound 15h]
Outgoing: yes

Incoming: # strict comparison: is reported λex: Maximum excitation wavelength < 400 nm? input = COc1ccc2nc(/C=C/C(=O)c3ccc(C)cc3)ccc2c1 [Compound 13d]
Outgoing: yes

---

- ASSAY SYSTEM: bovine serum albumin (BSA) (Bos taurus)
- Sequence (P02769 25-607): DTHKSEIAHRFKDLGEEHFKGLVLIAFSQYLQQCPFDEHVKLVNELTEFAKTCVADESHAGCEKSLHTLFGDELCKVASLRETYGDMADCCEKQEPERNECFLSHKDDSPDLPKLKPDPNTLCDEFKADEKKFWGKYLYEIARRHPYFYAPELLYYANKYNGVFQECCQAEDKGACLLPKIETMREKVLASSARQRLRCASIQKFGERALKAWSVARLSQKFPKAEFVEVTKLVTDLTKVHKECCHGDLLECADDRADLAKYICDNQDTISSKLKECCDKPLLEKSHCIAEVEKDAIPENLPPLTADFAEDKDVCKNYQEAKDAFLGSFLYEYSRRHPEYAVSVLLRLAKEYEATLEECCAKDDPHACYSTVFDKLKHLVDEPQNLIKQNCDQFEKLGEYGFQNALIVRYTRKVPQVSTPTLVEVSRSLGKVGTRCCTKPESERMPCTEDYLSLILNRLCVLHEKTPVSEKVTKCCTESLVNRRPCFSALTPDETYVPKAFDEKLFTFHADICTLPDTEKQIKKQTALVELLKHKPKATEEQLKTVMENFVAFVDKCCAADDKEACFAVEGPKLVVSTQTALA
- ASSAY REMARKS: Measurement of non-specific binding using BSA
- TEST PARAMETERS: compound 10 μM, 0.25 mg/ml BSA, 30 min incubation
TEST READOUT: FIBSA: fold increase = fluorescence intensity of probe bound to BSA / probe (free)

Below are worked cases with known answers.
INSERT INTO results (compound, experimental_value) VALUES
  ('COc1ccc2nc(C(=O)/C=C/C=C/c3ccc(N(C)CCO)cc3)ccc2c1 [Compound 16e]', 1.59),
  ('COc1ccc2nc(C(=O)/C=C/C=C/c3ccc(N(C)C)nc3)ccc2c1 [Compound 16d]', 1.26),
  ('Nc1ccc(C(=O)/C=C/c2ccc3cc(O)ccc3n2)cc1 [Compound 13c]', 1.72);

Incoming: Fill in: FIBSA: fold increase = fluorescence intensity of probe bound to BSA / probe (free) of COc1ccc2nc(/C=C/C(=O)c3ccc(N(C)C)cc3)ccc2c1 [Compound 13a] is ___
Outgoing: 1.23

Incoming: Fill in: FIBSA: fold increase = fluorescence intensity of probe bound to BSA / probe (free) of CNc1ccc(/C=C/C=C/c2ccc3cc(OC)ccc3n2)cc1 [Compound 15b] is ___
Outgoing: 0.26

Incoming: Fill in: FIBSA: fold increase = fluorescence intensity of probe bound to BSA / probe (free) of COc1ccc2nc(/C=C/C=C/c3ccc(N(C)C)cc3)ccc2c1 [Compound 15c] is ___
Outgoing: 0.19

Incoming: Fill in: FIBSA: fold increase = fluorescence intensity of probe bound to BSA / probe (free) of COc1ccc2nc(/C=C/C=C/c3ccc(N(C)C)nc3)ccc2c1 [Compound 15d] is ___
Outgoing: 1.05

Incoming: Fill in: FIBSA: fold increase = fluorescence intensity of probe bound to BSA / probe (free) of COc1ccc2nc(/C=C/c3ccc(C(F)(F)F)cc3)ccc2c1 [Compound 14a] is ___
Outgoing: 0.60
